Target: Carnitine O-palmitoyltransferase 1, liver isoform (Homo sapiens, UniProt P50416)
Sequence (P50416 whole entry): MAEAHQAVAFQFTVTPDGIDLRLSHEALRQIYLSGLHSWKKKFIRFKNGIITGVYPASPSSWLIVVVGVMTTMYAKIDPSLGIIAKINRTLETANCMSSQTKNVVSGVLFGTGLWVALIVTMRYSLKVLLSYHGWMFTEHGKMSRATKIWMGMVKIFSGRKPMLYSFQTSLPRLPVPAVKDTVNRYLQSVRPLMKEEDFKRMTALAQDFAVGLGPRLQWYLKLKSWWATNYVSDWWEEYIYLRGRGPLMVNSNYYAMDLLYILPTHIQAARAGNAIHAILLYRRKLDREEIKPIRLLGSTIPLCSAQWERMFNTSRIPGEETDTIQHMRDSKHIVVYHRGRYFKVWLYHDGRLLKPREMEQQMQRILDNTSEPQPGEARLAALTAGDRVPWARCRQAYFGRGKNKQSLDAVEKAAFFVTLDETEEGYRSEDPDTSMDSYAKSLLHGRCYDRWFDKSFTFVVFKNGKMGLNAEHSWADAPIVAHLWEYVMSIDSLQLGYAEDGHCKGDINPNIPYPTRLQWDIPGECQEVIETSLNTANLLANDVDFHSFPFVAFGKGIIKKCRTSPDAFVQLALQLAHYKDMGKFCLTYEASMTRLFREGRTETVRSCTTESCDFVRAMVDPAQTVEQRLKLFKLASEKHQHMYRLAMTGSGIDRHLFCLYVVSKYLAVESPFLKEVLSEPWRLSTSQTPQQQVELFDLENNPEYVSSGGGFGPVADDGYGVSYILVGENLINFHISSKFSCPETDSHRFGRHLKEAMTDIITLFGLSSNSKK
Assay: SUPPLEMENTARY: Inhibition of Carnitine palmitoyltransferase 1, liver isoform
recorded metric: IC50 (nM)

Look over these answered cases.
COc1ccc(Cl)cc1S(=O)(=O)N1CCSc2ccc(C(=O)Nc3ccc(C(=O)O)cc3)cc21 ... 65.4
CCOc1ccc(C(=O)Nc2ccc(C(=O)O)c(F)c2)cc1N(CCS(=O)O)S(=O)(=O)c1cc(Cl)ccc1OC ... 146
O=C1COc2ccc(-c3nc([C@H]4CCCCN4C(=O)COc4ccccc4)no3)cc2N1 ... 35.8

1: COc1ccc(-c2noc([C@H]3CCCCN3C(=O)C#Cc3ccccc3)n2)cc1
2: COCCN(C)C(=O)c1cncc(-c2noc([C@H]3CCCCN3C(=O)COc3ccccc3)n2)c1
# input Of 1 and 2 , which shows the smaller IC50 value? Select an item and report its label.
# output 2
(2: 165 nM, 1: 288 nM)

1: O=C1CCCN1c1cccc(-c2noc([C@H]3CCCCN3C(=O)COc3ccccc3)n2)c1
2: COc1ccc(Cl)cc1S(=O)(=O)c1c[nH]c2ccc(C(=O)Nc3nc(CC(=O)O)cs3)cc12
# input Of 1 and 2 , which shows the smaller IC50 value? Select an item and report its label.
# output 2

P: O=C1Cc2ccc(-c3n[nH]c([C@H]4CCCCN4C(=O)COc4ccccc4)n3)cc2N1
Q: CC(=O)Nc1cccc(-c2nc([C@H]3CCCCN3C(=O)COc3ccccc3)no2)c1
R: COc1ccc(Cl)cc1S(=O)(=O)N(C)c1cc(C(=O)Nc2ccc(CC(=O)O)cc2)cc2c1OCO2
# input Exam item: list the entries in increasing order of IC50. Use the labels to give the ranking in the order requested.
# output Q, P, R
(Q: 43.8 nM, P: 211 nM, R: 391 nM)

P: O=C(O)c1ccc(NC(=O)c2ccc(NS(=O)(=O)c3cc(Cl)cc(Cl)c3)s2)cc1
Q: COc1ccc(Cl)cc1S(=O)(=O)N(c1cc(C(=O)Nc2ccc(CC(=O)O)cc2)cc2c1OCO2)C(C)C
# input Two entries are listed, P and Q . Which one carries the higher IC50? Select an item and report its label.
# output Q
